Test: Metabolism in dog hepatic S9
Assay type: in vitro ADME
Settings: 0.5 mg of protein
// % Metabolism Dog S9 lookup, one value per entry
MEASURE_NAME: % Metabolism Dog S9 (%)

>  <COMPOUND>
NC(COc1ccccc1C(F)(F)F)c1ccccc1 (stereo not shown) [drawing 308]

>  <UNIT_OF_MEASUREMENT>
%

>  <RECORDED_RESULT>
51.0

$$$$
>  <COMPOUND>
NC(COc1cc(C(F)(F)F)cc(C(F)(F)F)c1)c1ccccc1 (stereo not shown) [drawing 305]

>  <UNIT_OF_MEASUREMENT>
%

>  <RECORDED_RESULT>
25.6

$$$$
>  <COMPOUND>
Cc1cc(C)cc(OCC(N)c2ccccc2)c1 (stereo not shown) [drawing 306]

>  <UNIT_OF_MEASUREMENT>
%

>  <RECORDED_RESULT>
35.8

$$$$
>  <COMPOUND>
Cc1ccccc1OCC(N)c1ccccc1 (stereo not shown) [drawing 307]

>  <UNIT_OF_MEASUREMENT>
%

>  <RECORDED_RESULT>
98.0

$$$$
